biological target: T1, cynomolgus CD3εδ-Fc heterodimer (Cy CD3ε Fc / CD3δ Fc-HIS) (cynomolgus, UniProt Q95LI8 22-100); assay: SPR (Biacore 8K), CHO-produced Fab, monovalent, pH 6.0
T1 construct: range 22-100; Produced in HEK 293 cells; also called Cy CD3εδ Fc heterodimer; not shown: Fc-HIS part of CD3δ Fc-HIS
T1 sequence (chain, as listed by the source mutant, form in doubt, chain 1 of 2): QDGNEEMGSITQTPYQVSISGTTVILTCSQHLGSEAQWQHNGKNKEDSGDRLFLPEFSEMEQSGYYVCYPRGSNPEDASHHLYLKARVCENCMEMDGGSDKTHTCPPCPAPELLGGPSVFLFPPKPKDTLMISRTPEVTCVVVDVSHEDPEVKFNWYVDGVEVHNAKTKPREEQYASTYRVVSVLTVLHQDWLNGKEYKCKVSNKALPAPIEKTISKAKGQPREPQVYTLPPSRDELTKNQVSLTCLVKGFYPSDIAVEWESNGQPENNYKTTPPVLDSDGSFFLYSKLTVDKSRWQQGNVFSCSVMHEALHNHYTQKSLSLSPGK
T1 sequence (Q95LI8 22-100, stated change not applied, form in doubt, chain 2 of 2): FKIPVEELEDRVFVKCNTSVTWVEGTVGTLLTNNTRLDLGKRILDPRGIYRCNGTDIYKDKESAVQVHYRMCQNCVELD
valueType: pKd
# reply with the number alone; pKd is -log10 of concentration in mol/L

Fab of ADI-26906 (Antibody No. 1) (Fab, V domains shown, Fab made by papain digestion of the human IgG1 (yeast- or CHO-produced); also called Antibody No. 1 Fab; ADI-26906 Fab) VH: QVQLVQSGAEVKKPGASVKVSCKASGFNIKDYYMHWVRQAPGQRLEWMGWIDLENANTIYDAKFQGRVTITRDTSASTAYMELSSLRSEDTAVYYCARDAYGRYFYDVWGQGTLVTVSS VL: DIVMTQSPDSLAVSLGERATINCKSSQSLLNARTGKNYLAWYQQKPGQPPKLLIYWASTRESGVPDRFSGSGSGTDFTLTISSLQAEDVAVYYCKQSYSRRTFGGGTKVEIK    8.72

In the following, a different binder is considered.
What does the record list as pKd for Fab of ADI-74967 (Antibody No. 5) (Fab, V domains shown, Fab made by papain digestion of the human IgG1 (yeast- or CHO-produced); also called Antibody No. 5 Fab; ADI-74967 Fab) VH: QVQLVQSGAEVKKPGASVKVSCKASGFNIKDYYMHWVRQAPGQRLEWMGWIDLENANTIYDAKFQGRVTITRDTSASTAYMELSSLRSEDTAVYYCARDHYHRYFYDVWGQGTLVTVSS VL: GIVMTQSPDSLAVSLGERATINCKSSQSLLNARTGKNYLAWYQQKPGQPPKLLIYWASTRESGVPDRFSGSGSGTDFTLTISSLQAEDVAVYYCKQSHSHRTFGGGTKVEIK ? 7.94
